# assay_system: rat B1R (Rattus norvegicus, UniProt P97583)
# Construct: expressed in transfected cells; host or cells: CHO K1 cells (stably transfected)
# Sequence (P97583 1-337): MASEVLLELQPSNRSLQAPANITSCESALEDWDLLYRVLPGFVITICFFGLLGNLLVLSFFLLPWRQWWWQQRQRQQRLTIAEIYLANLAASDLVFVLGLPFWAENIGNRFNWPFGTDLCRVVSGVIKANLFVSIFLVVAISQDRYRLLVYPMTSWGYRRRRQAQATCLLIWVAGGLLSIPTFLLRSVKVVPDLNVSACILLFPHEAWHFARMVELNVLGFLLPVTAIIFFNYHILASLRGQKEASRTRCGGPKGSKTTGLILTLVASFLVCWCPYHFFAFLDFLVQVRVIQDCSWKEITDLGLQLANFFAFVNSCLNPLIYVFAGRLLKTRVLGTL
# experiment_summary: Functional investigation on the bradykinin 1 receptor, cell-based fluorescent calcium-mobilization assay (FLIPR), rat
# study_conditions: 10 μM test substance; CHO K1 cells transfected with rat B1R gene; agonist Des-Arg9-bradykinin at EC80; % of maximum achievable inhibition
recorded_metric: inhibition at 10 µM (%)
Kindly answer with a numeric value in %, unit omitted.

Examples with their reported inhibition at 10 µM follow.
In [3]: df
Out[3]:
                                   molecule  units_label  value_observed
0  COc1cc(C)c(S(=O)(=O)N2CCn3c(C)ccc3C2COCC(=O)N(C)[C@H]2CCC[C@@H](N3CCN(C)CC3)C2)c(C)c1 (stereo partly shown) [SC-06]            %             110
1  Cc1cccc(Cl)c1S(=O)(=O)N1CCn2cccc2C1COCC(=O)N(C)[C@H]1CCC[C@@H](N2CCN(C)CC2)C1 (stereo partly shown) [SC-02]            %             105

Under rat B1R (Rattus norvegicus, UniProt P97583): report inhibition at 10 µM of CN1CCN(C2CC(N(C)C(=O)CCC3c4cccn4CCN3S(=O)(=O)c3cccc(C(F)(F)F)c3)C2)CC1 (stereo not shown) [CC-61] .
14

Print rat B1R (Rattus norvegicus, UniProt P97583) inhibition at 10 µM for COc1cc(C)c(S(=O)(=O)N2CCn3cccc3C2COCC(=O)N(C)C2CCC(N3CCN(C)CC3)CC2)c(C)c1 (stereo not shown) [SC-05] .
100

Report measured inhibition at 10 µM on rat B1R (Rattus norvegicus, UniProt P97583); entry: COc1cc(C)c(S(=O)(=O)N2CCn3cccc3C2COCC(=O)N(C)C2CC(N3CCN(C)CC3)C2)c(C)c1 (stereo not shown) [CC-58]
88

----------
# assay_system: rat B1R (Rattus norvegicus, UniProt P97583)
# Construct: expressed in transfected cells; host or cells: CHO K1 cells (stably transfected)
# experiment_summary: Functional investigation on the bradykinin 1 receptor, cell-based fluorescent calcium-mobilization assay (FLIPR), rat
# study_conditions: 10 μM test substance; CHO K1 cells transfected with rat B1R gene; agonist Des-Arg9-bradykinin at EC80; % of maximum achievable inhibition
recorded_metric: inhibition at 10 µM (%)
Field format: number, assumed %, no unit text.

Examples with their reported inhibition at 10 µM follow.
In [3]: df
Out[3]:
                                   compound      recorded_metric  value_observed
0  CN1CCN([C@@H]2CCC[C@H](NC(=O)CCC3c4cccn4CCN3S(=O)(=O)c3cccc(C(F)(F)F)c3)C2)CC1 (relative stereo) [CC-10]  inhibition at 10 µM              36
1  COc1cc(C)c(S(=O)(=O)N2CCn3cccc3C2COCC(=O)N[C@H]2CCC[C@@H](N3CCN(C)CC3)C2)c(C)c1 (relative stereo) [CC-06]  inhibition at 10 µM             100

Give reported inhibition at 10 µM value for COc1ccc2cc(S(=O)(=O)N3CCn4cccc4C3CC(=O)N(C)C3CC(N4CCN(C)CC4)C3)ccc2c1 (stereo not drawn) [CC-60]
106
